All figures here come from the Human Domainome abundance scans (Beltran et al. 2025).

Catalogue of variants with associated abundance fitness
B1: Homeobox protein cut-like 1, residues 548 to 629; numbered along this chain, P39880 (parent)
chain: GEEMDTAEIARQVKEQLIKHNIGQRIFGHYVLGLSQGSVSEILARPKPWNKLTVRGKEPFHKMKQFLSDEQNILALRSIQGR

# Variants of: B1
# experiment: abundance fitness (aPCA) (normalised: wild type 0, dead -1); higher = more abundant; growth selection in yeast, the domain comes from the species named
# stated conditions: Homo sapiens
measured parameter: abundance fitness

>>> reported_measurement("GEYMDTAEIARQVKEQLIKHNIGQRIFGHYVLGLSQGSVSEILARPKPWNKLTVRGKEPFHKMKQFLSDEQNILALRSIQGR")
-0.091
>>> reported_measurement("GEEMDTAEIARQVKEQLIKHNIGQRIFGHYVLGLSQGSVSEILARPKPWNKLTVRGKEPFHKTKQFLSDEQNILALRSIQGR")
-0.777
>>> reported_measurement("GEEMDTAEIARQVKEQLIKHNIGQRIFGHYVLGLSQGSFSEILARPKPWNKLTVRGKEPFHKMKQFLSDEQNILALRSIQGR")
-0.165
>>> reported_measurement("GEEMDTAEIARQVKEQLIQHNIGQRIFGHYVLGLSQGSVSEILARPKPWNKLTVRGKEPFHKMKQFLSDEQNILALRSIQGR")
-0.18
>>> reported_measurement("GEEMDTAEIARQVKEQLIKHNIGQRIFGHYVLGLSQGSVSEILARPKPWNKLTVRGKEPFHKMKQFLSDEQFILALRSIQGR")
-0.143
>>> reported_measurement("GEEMDTAEIARQVKEQLIKHNIGQRIFGHYVLGLSQGSVSEILARPKPWNKLTVRGKEPFHKMKQFLSDEQNVLALRSIQGR")
0.038
>>> reported_measurement("GEEMDTAEIARQVKEQLIKHNIGPRIFGHYVLGLSQGSVSEILARPKPWNKLTVRGKEPFHKMKQFLSDEQNILALRSIQGR")
-0.079
>>> reported_measurement("GEEMDTAEIARQRKEQLIKHNIGQRIFGHYVLGLSQGSVSEILARPKPWNKLTVRGKEPFHKMKQFLSDEQNILALRSIQGR")
-0.586
>>> reported_measurement("GEEMDTAEIARQVKEQLIKHNIGQRIFGHYVLGLSQGSVSEILARPKPWNKLTVRGKEPFHKMKQFLSDEQNILALSSIQGR")
0.041
>>> reported_measurement("GEEMDTAEIARQVKEQLIKHNIGQRIFGHYVLGLSQGSVSEILARPKPWRKLTVRGKEPFHKMKQFLSDEQNILALRSIQGR")
-0.04
>>> reported_measurement("GEEMDTAEIARQVKEQLIKHNIGQRIFGHYVLGLSQGSVSEILARPKPWNKLTVRDKEPFHKMKQFLSDEQNILALRSIQGR")
0.036
